# Tested on: MDA-MB-231 breast
# experimental.protocol: NCI tumour cell line growth inhibition, 48 h; in the data active = GI50 below about 0.43 µM; inactive = the rest
Hi! Could you answer with just one of these? active, inactive

Entry Nc1n[nH]c2ccc([C@@H]3Nc4cc5[nH]ncc5cc4[C@H]4C5CCC(C5)[C@@H]34)cc12 (some centres undefined) : call = ?
inactive

Entry O=C(Nc1cnc(C(F)(F)F)cn1)c1cc(Cl)ccc1O : call = ?
active

Entry CCN(C(=O)CN1CCN(c2cc3c(cc2F)c(=O)c(C(=O)O)cn3CC)CC1)c1nc(-c2ccccc2)cs1 : call = ?
inactive

Entry O=C(Nc1ccccc1Cl)c1cccc(NC2=C(Cl)C(=O)N(Cc3ccccc3)C2=O)c1 : call = ?
inactive

Entry COc1ccc2c(c1)C(=O)c1c-2c(N2CCNCC2)nc2ccccc12 : call = ?
inactive

Entry COc1cccc(C2C(C#N)=C(N)Oc3c2ccc2ccccc32)c1 (centres undefined) : call = ?
active

Entry Cc1ccc(Sc2oc(-c3ccc(C)cc3)nc2[P+](c2ccccc2)(c2ccccc2)c2ccccc2)cc1 : call = ?
active

Entry O=c1c(O)cccn1CCCN(CCCn1cccc(O)c1=O)CCn1cccc(O)c1=O : call = ?
inactive

Entry COc1cc(OC)cc(-c2n/c(=C\c3c(O)[nH]c4ccc(Cl)cc34)cc3c2=Nc2ccccc2-3)c1 : call = ?
inactive

Entry CC1=C(C(=O)Nc2ccc(F)c(Cl)c2)C(c2ccccc2O)NC(=O)N1 (centres undefined) : call = ?
inactive

Entry OCc1ccc(N2CCCC2)cc1Cl : call = ?
inactive

Entry Nc1ncccc1-c1nc2ccc(-c3ccccc3)nc2n1-c1ccc(C2(N)CCC2)cc1 : call = ?
inactive

Entry CC(=O)O.CC(=O)O.CC(=O)O.CC(=O)O.[Rh].[Rh] : call = ?
inactive

Entry O=c1cccc(C#CC#CCCCO)o1 : call = ?
inactive

Entry Oc1c(Cl)cc(Cl)c2cccnc12 : call = ?
inactive

Entry N=C(N)c1ccc(-c2ccc(-c3ccc(Cl)cc3)s2)nc1 : call = ?
inactive

Entry C[C@H]1c2ccccc2CN1CCCOc1cc2c(cc1OCC1CC1)C1(CCCC1)C(N)=N2 : call = ?
inactive

Entry COc1cccc(CC(C)=C(c2ccc(OCCCN(C)C)cc2)c2ccc(OCCCN(C)C)cc2)c1 : call = ?
inactive

Entry O=C1CSC(c2ccccc2O)N1c1nnc(Cn2ccnc2)o1 (centres undefined) : call = ?
inactive

====

I'd be grateful if you could share measured TGI for these entries.
# Test system: A498 renal
# experimental.protocol: NCI tumour cell line growth inhibition, 48 h
Write down the numeric answer in µM and omit the unit.

// lookup TGI for COc1ccc(Oc2ccccc2NC(=O)CNC(=O)c2cccc3ccccc23)cc1
10.4

// lookup TGI for Clc1ccccc1NN(Cc1ccncc1)c1ccccc1Cl
33.7

// lookup TGI for O=C(Nc1ccccc1Cl)c1cccc(NC2=C(Cl)C(=O)N(Cc3ccccc3)C2=O)c1
89.9

// lookup TGI for Cc1oc2c(c1C(=O)N1CC[C@@H](N)C1)C(=O)c1c(c(O)c3ccccc3c1O)C2=O
18.9

// lookup TGI for COC1=CC(=O)c2c(O)c3c(c(O)c2C1=O)C[C@](C)(O)C[C@@H]3O
20.1

// lookup TGI for CN(CCc1ccc(Cl)c(Cl)c1)CCN(C)CCN1CCCC1
26.3

====

# System: HOP-92 NSCLC
# experimental.protocol: NCI tumour cell line growth inhibition, 48 h
I'd be grateful if you could share measured TGI for these entries.

// lookup TGI | system=HOP-92 NSCLC | key= Cc1c(C#N)c2nnn(-c3ccccc3)c(=O)n2c1-c1ccccc1
> 100 µM

// lookup TGI | system=HOP-92 NSCLC | key= COc1ccc2c(c1OC)C(=O)O[C@@H]2[C@H]1c2cc3c(cc2CCN1C)OCO3
> 100 µM

// lookup TGI | system=HOP-92 NSCLC | key= COC(=O)/C=C/c1cc(OC)c2oc(-c3ccc(OC)c(OC)c3)c(C(=O)OC)c2c1
> 100 µM
